Assay: NCI Yeast Anticancer Drug Screen. Data for the mlh1 rad18 strain (AID 175)
Conditions: S. cerevisiae mlh1 rad18 strain growth inhibition; at 50.0 µM (retest, dose inferred, filed as 5.0)
The panel holds about 79,000 compounds, 15% with a hit somewhere; the sample as a whole holds those more often. Calls of active or inactive are those of the source. Rule as the data show it: active = growth inhibition above about 70%; inactive = the rest.
Can you answer with just one of these options? active, inactive

Check out these entries, answers already filled in.
- compound: "CC(=O)N(C(C)=O)C1=C2c3ccccc3N(S(=O)(=O)c3ccccc3)C2n2c(=O)n(-c3ccccc3)c(=O)n2C1 (stereo unspecified)"
  qualitative_label: "inactive"
- compound: "CC1(C)OC(=O)C(=NNc2ccccc2[N+](=O)[O-])C(=O)O1"
  qualitative_label: "inactive"
- compound: "COc1ccc2ccccc2c1-c1c(O)ccc2ccccc12"
  qualitative_label: "active"

Returns: the outcome recorded for c1ccc2sc(SSN3CCOCC3)nc2c1 in this assay.
active

Dear colleague, could you share the recorded outcome for O=C(Oc1c(I)ccccc1=O)c1ccc([N+](=O)[O-])cc1 when you have a moment?
active

Per the assay record, what outcome was assigned to CC1(c2ccccc2)Nc2ccccc2C1=Nc1ccccc1 (stereo unspecified) ?
active

Recorded test outcome, item C=C1C(=O)O[C@@H]2C[C@@]3(C)CCC[C@H](C)C3=C[C@H]12 (tested in a mixture with another compound)
active

Tell me the recorded outcome of this test for CCCC(C)NCCCCCNc1cc(OC)cc2cccnc12 (stereo unspecified) .
inactive

For this compound, state the assay outcome: CC(=O)OCC(C(N)=O)(c1ccccc1)c1ccccc1
inactive

// param item: Cc1c[nH]c(C(=O)O)c1-c1ccc2c(-c3ccccc3)nc3ccccc3n12 ; yields the recorded call
active

What did this assay record as the result for CCOC(=O)N1C=CC(=C2C(=C3C=CN(C(=O)OCC)C=C3)C(=C3C=CN(C(=O)OCC)C=C3)C2=C2C=CN(C(=O)OCC)C=C2)C=C1 ?
inactive

Could you kindly confirm the outcome this assay logged for C/C=C(\C)C(=O)OC1C2C(C)=CC(=O)C(O)C2(C)C2C3(O)OCC24C1OC(=O)C(O)C4C(C)C3O (stereo unspecified) ?
inactive

# lookup: test call for O=NNc1ncccc1OCc1ccccc1
inactive

Write down the call the test reported for this compound. Item: O=C(NCc1ccccc1)N1CCN(c2ccccc2)C1=O
inactive

Per the assay record, what outcome was assigned to CCOc1ccccc1/C=N/Nc1nnc(N/N=C/c2ccccc2OCC)c2ccccc12 ?
active

Record request — test call for COc1cnc2cc3c4c(cccc4c2c1)NC3=O
active

How was O=CNc1ccc(Oc2ccc(NC=O)cc2)cc1 classified in this test?
inactive

Please state the recorded outcome for this compound: CC(C)(C)c1ccc(C(=O)n2c(=S)oc3ccc(Cl)cc32)cc1
active

----------
Assay: NCI Yeast Anticancer Drug Screen. Data for the rad50 strain (AID 155)
Settings: S. cerevisiae rad50 strain growth inhibition; at 50.0 µM (retest, dose inferred, filed as 5.0)
Compounds without any hit were thinned out: in the full panel of roughly 79,000, 15% have a hit. Activity calls are given as the source filed them. Rule as the data show it: active = growth inhibition above about 70%; inactive = the rest.
Outcome field: choose from active, inactive

Example entries begin here.
- compound: "COC(=O)C1(C)CCCC2(C)C3CC(=O)C(C(C)C)=CC3(O)CCC12 (stereo not drawn)"
  qualitative_label: "inactive"
- compound: "C(=Nc1ccccc1)c1cn(Cc2ccccc2)c2ccccc12"
  qualitative_label: "active"
- compound: "COc1nc2nc(Cl)cc(C)c2c2ccccc12 (tested in a mixture with another compound)"
  qualitative_label: "active"
- compound: "O=[N+]([O-])c1ccc(C(Br)(Br)c2ccc([N+](=O)[O-])cc2)cc1"
  qualitative_label: "active"

Now for a further compound.
Test call, this compound: COc1cccc(-c2cc(=O)c3c(C)ccnc3[nH]2)c1
inactive
